System: NO production in IFN-γ/LPS-stimulated RAW 264.7 macrophages
TEST: NO suppression (Griess nitrite determination) in IFN-γ/LPS-stimulated RAW 264.7 macrophages
Format: cell-based, murine
STUDY_CONDITIONS: 50 µM test concentration; IFN-γ/LPS-stimulated RAW 264.7 cells; 50 µM
Description: The synthesized compounds were screened for NO suppression activity in IFN-γ/LPS-stimulated RAW 264.7 macrophages at a 50 µM test concentration. […] The IC50 values of the fifty-seven bioactive compounds were determined and compared to that of the positive control, curcumin. An MTT assay was also carried out to confirm that NO inhibition was not due to cytotoxicity. […] The optical density was measured at 550 nm after 5 min of incubation at room temperature with a microplate reader.
Measured NO Inhibition at 50 µM (%) ± S.E.M values are reported for all entries that follow.

CHEMICAL_STRUCTURE | TARGET_OR_SYSTEM | UNIT_ABBREVIATION | NO Inhibition at 50 µM (%) ± S.E.M
O=C(/C=C(O)/C=C/c1cccc(O)c1)c1cc(O)ccc1O | NO production in IFN-γ/LPS-stimulated RAW 264.7 macrophages | % | 90.9
COc1ccc(O)c(C(=O)/C=C(O)/C=C/c2ccccc2OC)c1 | NO production in IFN-γ/LPS-stimulated RAW 264.7 macrophages | % | 65.8
O=C(/C=C(O)/C=C/c1ccccc1)c1cc(Cl)ccc1O | NO production in IFN-γ/LPS-stimulated RAW 264.7 macrophages | % | 85.3

----------
Tested on: NO production in IFN-γ/LPS-stimulated RAW 264.7 macrophages
TEST: NO suppression (Griess nitrite determination) in IFN-γ/LPS-stimulated RAW 264.7 macrophages
Assay type: cell-based, murine
STUDY_CONDITIONS: Mus musculus, RAW264.7, IFN-γ/LPS-stimulated RAW 264.7 cells; read-out: NO Inhibition IC50 (µM) ± S.E.M
Measured IC50 values are reported for all entries that follow.
READOUT_LABEL: IC50 (µM)

CHEMICAL_STRUCTURE | READOUT_LABEL | NUMERIC_VALUE
COc1cccc(/C=C/C(O)=C/C(=O)c2cc(Cl)ccc2O)c1 | IC50 | 17.4
O=C(/C=C(O)/C=C/c1cccc(Cl)c1)c1cc(Cl)ccc1O | IC50 | 36.2
O=C(/C=C(O)/C=C/c1ccccc1)c1cc(Br)ccc1O | IC50 | 20.8
COc1cccc(/C=C/C(O)=C/C(=O)c2ccc(OC)cc2O)c1 | IC50 | 45.8
O=C(/C=C(O)/C=C/c1ccc(O)cc1)c1ccccc1O | IC50 | 19.1
COc1ccc(O)c(C(=O)/C=C(O)/C=C/c2cccc(Cl)c2)c1 | IC50 | 35.7
COc1ccccc1/C=C/C(O)=C/C(=O)c1cc(Cl)ccc1O | IC50 | 36
COc1ccc(C(=O)/C=C(O)/C=C/c2ccc(OC)c(OC)c2)c(O)c1 | IC50 | 21.7

----------
Measured IC50 values are reported for all entries that follow.
TEST: Cell cytotoxicity determination (MTT assay)
Format: cell-based, murine
STUDY_CONDITIONS: mouse, RAW 264.7 macrophage cells, RAW 264.7 cells, read-out: Cytotoxicity IC50 (µM) ± S.E.M
READOUT_LABEL: IC50

COMPOUND | RESULT
O=C(/C=C(O)/C=C/c1ccccc1)c1cc(Cl)ccc1O [Compound 21] | > 100 µM
O=C(/C=C(O)/C=C/c1ccco1)c1ccccc1O [Compound 12] | > 100 µM
COc1ccc(O)c(C(=O)/C=C(O)/C=C/c2ccccc2OC)c1 [Compound 61] | > 100 µM
COc1cc(/C=C/C(O)=C/C(=O)c2ccccc2O)cc(OC)c1OC [Compound 9] | > 100 µM
O=C(/C=C(O)/C=C/c1cccs1)c1cc(Cl)ccc1O [Compound 35] | > 100 µM
